Assay: PTX silicate hydrolysis rates by 1H NMR
Type: physicochemical
Settings: d6-acetone:D2O:TFA 90:9:1, room temperature; 1d = 1.0; ± SD of three trials
MEASURED_ATTRIBUTE: krel at C2′ (hydrolysis rate relative to the slowest, 1d)
One number for each entry.

Worked set:
[[record]]
compound = "CCCCCCCCO[Si](OCCCCCCCC)(OCCCCCCCC)OC(C(=O)OC1CC2(O)C(OC(=O)c3ccccc3)C3C4(OC(C)=O)COC4CC(O)C3(C)C(=O)C(OC(C)=O)C(=C1C)C2(C)C)C(NC(=O)c1ccccc1)c1ccccc1 (stereo not drawn)"
measurement = 710

[[record]]
compound = "CCCCCCCCO[Si](OCCCCCCCC)(OCCCCCCCC)OC(C(=O)OC1CC2(O)C(OC(=O)c3ccccc3)C3C4(OC(C)=O)COC4CC(O[Si](OCCCCCCCC)(OCCCCCCCC)OCCCCCCCC)C3(C)C(=O)C(OC(C)=O)C(=C1C)C2(C)C)C(NC(=O)c1ccccc1)c1ccccc1 (stereo not drawn)"
measurement = 460


We next turn to a different compound, shown below.
I am curious: what krel at C2′ (hydrolysis rate relative to the slowest, 1d) value has been reported for `CCO[Si](OCC)(OCC)O[C@H]1C[C@H]2OC[C@@]2(OC(C)=O)[C@H]2[C@H](OC(=O)c3ccccc3)[C@]3(O)C[C@H](OC(=O)[C@H](O[Si](OCC)(OCC)OCC)[C@@H](NC(=O)c4ccccc4)c4ccccc4)C(C)=C([C@@H](OC(C)=O)C(=O)[C@]12C)C3(C)C` ?
1800

---

Answer each item with its documented krel at C7 (hydrolysis rate relative to the slowest, 1d).
Assay: PTX silicate hydrolysis rates by 1H NMR
Assay type: physicochemical
Details: d6-acetone:D2O:TFA 90:9:1, room temperature; for 2a/2b rate of in situ generated 3a/3b to PTX
Marks after values point to notes of the source that are not given here.

[[record]]
compound = "CCCCCCCCO[Si](OCCCCCCCC)(OCCCCCCCC)OC(C(=O)OC1CC2(O)C(OC(=O)c3ccccc3)C3C4(OC(C)=O)COC4CC(O[Si](OCCCCCCCC)(OCCCCCCCC)OCCCCCCCC)C3(C)C(=O)C(OC(C)=O)C(=C1C)C2(C)C)C(NC(=O)c1ccccc1)c1ccccc1 (stereo not shown)"
measurement = "41 ± 3^b"

[[record]]
compound = "CCCCCCCCO[Si](OCCCCCCCC)(OCCCCCCCC)O[C@H]1C[C@H]2OC[C@@]2(OC(C)=O)[C@H]2[C@H](OC(=O)c3ccccc3)[C@]3(O)C[C@H](OC(=O)[C@H](O)[C@@H](NC(=O)c4ccccc4)c4ccccc4)C(C)=C([C@@H](OC(C)=O)C(=O)[C@]12C)C3(C)C"
measurement = "55 ± 3^"

[[record]]
compound = "CCO[Si](OCC)(OCC)O[C@H]1C[C@H]2OC[C@@]2(OC(C)=O)[C@H]2[C@H](OC(=O)c3ccccc3)[C@]3(O)C[C@H](OC(=O)[C@H](O)[C@@H](NC(=O)c4ccccc4)c4ccccc4)C(C)=C([C@@H](OC(C)=O)C(=O)[C@]12C)C3(C)C"
measurement = "270 ± 10^"


I am curious: what krel at C7 (hydrolysis rate relative to the slowest, 1d) value has been reported for `CCO[Si](OCC)(OCC)O[C@H]1C[C@H]2OC[C@@]2(OC(C)=O)[C@H]2[C@H](OC(=O)c3ccccc3)[C@]3(O)C[C@H](OC(=O)[C@H](O[Si](OCC)(OCC)OCC)[C@@H](NC(=O)c4ccccc4)c4ccccc4)C(C)=C([C@@H](OC(C)=O)C(=O)[C@]12C)C3(C)C` ?
250 ± 10^a
